Recorded measurements of MIC of antibiotic at fixed inhibitor concentration of 4 mg/L, one per entry
Tested on: Pseudomonas aeruginosa 1973E
methodNotes: MIC, NCCLS broth microdilution
Format: cell-based
measurementContext: with 206 and clavulanate
recordedMetric: MIC of antibiotic at fixed inhibitor concentration of 4 mg/L

>>> assayvalue("C[C@H]1[C@H](NC(=O)/C(=N\\OCc2cc(=O)c(O)cn2C)c2csc(N)n2)C(=O)N1S(=O)(=O)O")
">32 µg/mL"
>>> assayvalue("CC1C(NC(=O)C(=NOCc2cc(=O)c(O)cn2O)c2cccc(N)n2)C(=O)N1S(=O)(=O)O (stereo not shown)")
"16 µg/mL"
>>> assayvalue("CC1C(NC(=O)C(=NOCc2cc(=O)c(O)cn2O)c2nsc(N)n2)C(=O)N1S(=O)(=O)O (stereo not shown)")
"8 µg/mL"
>>> assayvalue("CC1C(NC(=O)C(=NOCc2cc(=O)c(O)cn2O)c2csc(N)n2)C(=O)N1S(=O)(=O)O (stereo not shown)")
"4 µg/mL"

---

Test system: Pseudomonas aeruginosa MK1184
methodNotes: MIC, NCCLS broth microdilution
Assay type: cell-based
measurementContext: MIC of antibiotic compound 1 with the labelled bridged monobactam of formula II and clavulanate, 4 mg/L each
recordedMetric: MIC of antibiotic at fixed inhibitor concentration (4 mg/L)

>>> assayvalue("COC(=O)c1ccc[n+](CC(=O)N2CC[C@@H]3[C@H]2C(=O)N3S(=O)(=O)[O-])c1C [Compound 115]")
16
>>> assayvalue("COC(=O)c1cc(C)c[n+](CC(=O)N2CC[C@@H]3[C@H]2C(=O)N3S(=O)(=O)[O-])c1 [Compound 114]")
16
>>> assayvalue("Cc1nnc(SCC(=O)N2CC[C@@H]3[C@H]2C(=O)N3S(=O)(=O)[O-])s1.[Na+] [Compound 202]")
8
>>> assayvalue("O=C(Nc1ccc(O)cc1)N1CC[C@@H]2[C@H]1C(=O)N2S(=O)(=O)[O-].[Na+] [Compound 316]")
32
>>> assayvalue("O=C(CSc1nnnn1-c1ccccc1)N1CC[C@@H]2[C@H]1C(=O)N2S(=O)(=O)[O-].[Na+] [Compound 201]")
32

---

System: Pseudomonas aeruginosa MK1184
methodNotes: MIC, NCCLS broth microdilution
Assay type: cell-based
measurementContext: antibiotic alone, no inhibitor
Recorded measurements of MIC of antibiotic, one per entry
recordedMetric: MIC of antibiotic

>>> assayvalue("C[C@@H](O)[C@H]1C(=O)N2C(C(=O)O)=C(S[C@@H]3CN[C@H](C(=O)N(C)C)C3)[C@H](C)[C@H]12 [Meropenem, meropenem, reference compound]")
"2 µg/mL"
>>> assayvalue("C[C@H]1[C@H](NC(=O)/C(=N\\OCc2cc(=O)c(O)cn2O)c2nc(N)sc2Cl)C(=O)N1OS(=O)(=O)O")
">32 µg/mL"
>>> assayvalue("CC1C(NC(=O)C(=NOCc2cc(=O)c(O)cn2O)c2cccc(N)n2)C(=O)N1S(=O)(=O)O (stereo not drawn)")
">32 µg/mL"

---

System: Acinetobacter sp. J2
methodNotes: MIC, NCCLS broth microdilution
Assay type: cell-based
measurementContext: Acinetobacter baumannii J2; with 324 and sulbactam
Recorded measurements of MIC of antibiotic at fixed inhibitor concentration of 4 mg/L, one per entry
recordedMetric: MIC of antibiotic at fixed inhibitor concentration of 4 mg/L (µg/mL)

>>> assayvalue("C[C@H]1[C@H](NC(=O)/C(=N\\OCc2cc(=O)c(O)cn2O)c2csc(N)n2)C(=O)N1OCC(=O)O")
2
>>> assayvalue("C[C@H](ON1C(=O)[C@@H](NC(=O)/C(=N\\OCc2cc(=O)c(O)cn2O)c2csc(N)n2)[C@@H]1C)C(=O)O")
2
>>> assayvalue("C[C@H]1[C@H](NC(=O)/C(=N\\OCc2cc(=O)c(O)cn2O)c2nccc(N)n2)C(=O)N1S(=O)(=O)O")
2
>>> assayvalue("CC1(C)[C@H](NC(=O)/C(=N\\OCc2cc(=O)c(O)cn2O)c2csc(N)n2)C(=O)N1OS(=O)(=O)O")
2

---

Test system: Pseudomonas aeruginosa 1973E
methodNotes: MIC, NCCLS broth microdilution
Assay type: cell-based
measurementContext: with 324 and sulbactam
Recorded measurements of MIC of antibiotic at fixed inhibitor concentration of 4 mg/L, one per entry
recordedMetric: MIC of antibiotic at fixed inhibitor concentration of 4 mg/L (µg/mL)

>>> assayvalue("CC1(C)[C@H](NC(=O)/C(=N\\OCc2cc(=O)c(O)cn2O)c2csc(N)n2)C(=O)N1OS(=O)(=O)O")
2
>>> assayvalue("C[C@H]1[C@H](NC(=O)/C(=N\\OCc2cc(=O)c(O)cn2O)c2nccc(N)n2)C(=O)N1S(=O)(=O)O")
16
>>> assayvalue("C[C@H](ON1C(=O)[C@@H](NC(=O)/C(=N\\OCc2cc(=O)c(O)cn2O)c2csc(N)n2)[C@@H]1C)C(=O)O")
16
>>> assayvalue("C[C@H]1[C@H](NC(=O)/C(=N\\OCc2cc(=O)c(O)cn2O)c2csc(N)n2)C(=O)N1OCC(=O)O")
4

---

Recorded measurements of MIC of antibiotic at fixed inhibitor concentration (4 mg/L), one per entry
System: Pseudomonas aeruginosa MK1184
methodNotes: MIC, NCCLS broth microdilution
Assay type: cell-based
measurementContext: MIC of antibiotic compound 1 with the labelled bridged monobactam of formula II and clavulanate, 4 mg/L each
recordedMetric: MIC of antibiotic at fixed inhibitor concentration (4 mg/L)

>>> assayvalue("O=C(N[C@@H]1CCNC1)c1ccc[n+](CC(=O)N2CC[C@@H]3[C@H]2C(=O)N3S(=O)(=O)[O-])c1")
16
>>> assayvalue("O=C(C[n+]1cccc(-c2ccccc2)c1)N1CC[C@@H]2[C@H]1C(=O)N2S(=O)(=O)[O-]")
32
>>> assayvalue("O=C(C[n+]1cccc(C(F)(F)F)c1)N1CC[C@@H]2[C@H]1C(=O)N2S(=O)(=O)[O-]")
16

---

System: Pseudomonas aeruginosa MK1184
methodNotes: MIC, NCCLS broth microdilution
Format: cell-based
measurementContext: MIC of antibiotic compound 1 with the labelled bridged monobactam of formula II and clavulanate, 4 mg/L each
recordedMetric: MIC of antibiotic at fixed inhibitor concentration (4 mg/L)

>>> assayvalue("NC(C(=O)N1CC[C@@H]2[C@H]1C(=O)N2S(=O)(=O)O)c1ccc(O)c(O)c1 (stereo partly shown)")
">32 µg/mL"
>>> assayvalue("CN(C)c1ccc(NC(=O)N2CC[C@@H]3[C@H]2C(=O)N3S(=O)(=O)[O-])cc1.[Na+]")
">32 µg/mL"
>>> assayvalue("NC(=O)CNC(=O)c1ccc(NC(=O)N2CC[C@@H]3[C@H]2C(=O)N3S(=O)(=O)[O-])cc1.[Na+]")
">32 µg/mL"
>>> assayvalue("NC(=O)c1cnccc1C(=O)NCC(=O)N1CC[C@@H]2[C@H]1C(=O)N2S(=O)(=O)O")
"32 µg/mL"

---

System: Pseudomonas aeruginosa MK1184
methodNotes: MIC, NCCLS broth microdilution
Assay type: cell-based
measurementContext: antibiotic alone, no inhibitor
recordedMetric: MIC of antibiotic (µg/mL)

>>> assayvalue("CO/N=C(\\C(=O)N[C@@H]1C(=O)N2C(C(=O)[O-])=C(C[N+]3(C)CCCC3)CS[C@H]12)c1csc(N)n1 [Cefepime]")
32
>>> assayvalue("C[C@H](ON1C(=O)[C@@H](NC(=O)/C(=N\\OCc2cc(=O)c(O)cn2O)c2csc(N)n2)[C@@H]1C)C(=O)O")
8
>>> assayvalue("NC(=O)OCC1C(NC(=O)C(=NOCc2cc(=O)c(O)cn2O)c2nc(N)sc2Cl)C(=O)N1OS(=O)(=O)O (stereo not shown)")
4

---

System: Pseudomonas aeruginosa MK1184
methodNotes: MIC, NCCLS broth microdilution
Format: cell-based
measurementContext: MIC of antibiotic compound 1 with the labelled bridged monobactam of formula II and clavulanate, 4 mg/L each
recordedMetric: MIC of antibiotic at fixed inhibitor concentration (4 mg/L)

>>> assayvalue("O=C(C[n+]1ccccc1)Nc1ccc(SCC(=O)N2CC[C@@H]3[C@H]2C(=O)N3S(=O)(=O)[O-])cc1 [Compound 204]")
"32 µg/mL"
>>> assayvalue("CC(C)c1cc[n+](CC(=O)N2CC[C@@H]3[C@H]2C(=O)N3S(=O)(=O)[O-])cc1 [Compound 113]")
">32 µg/mL"
>>> assayvalue("NC(=O)c1cc[n+](CC(=O)N2CC[C@@H]3[C@H]2C(=O)N3S(=O)(=O)[O-])cc1 [Compound 105]")
"16 µg/mL"
>>> assayvalue("NC(=O)c1ccc(NC(=O)N2CC[C@@H]3[C@H]2C(=O)N3S(=O)(=O)[O-])cc1.[Na+] [Compound 311]")
">32 µg/mL"
>>> assayvalue("O=C(Nc1ccc2[nH]c(=O)[nH]c2c1)N1CC[C@@H]2[C@H]1C(=O)N2S(=O)(=O)[O-].[Na+] [Compound 319]")
">32 µg/mL"
>>> assayvalue("NC(=O)c1cc[n+](CC(=O)N2CC[C@@H]3[C@H]2C(=O)N3S(=O)(=O)[O-])cc1C(N)=O [Compound 110]")
"32 µg/mL"
>>> assayvalue("COC(=O)c1ccc[n+](CC(=O)N2CC[C@@H]3[C@H]2C(=O)N3S(=O)(=O)[O-])c1 [Compound 116]")
"8 µg/mL"
